- target.under.test: MERTK (UniProt Q12866)
- Sequence (Q12866 whole entry, looked up): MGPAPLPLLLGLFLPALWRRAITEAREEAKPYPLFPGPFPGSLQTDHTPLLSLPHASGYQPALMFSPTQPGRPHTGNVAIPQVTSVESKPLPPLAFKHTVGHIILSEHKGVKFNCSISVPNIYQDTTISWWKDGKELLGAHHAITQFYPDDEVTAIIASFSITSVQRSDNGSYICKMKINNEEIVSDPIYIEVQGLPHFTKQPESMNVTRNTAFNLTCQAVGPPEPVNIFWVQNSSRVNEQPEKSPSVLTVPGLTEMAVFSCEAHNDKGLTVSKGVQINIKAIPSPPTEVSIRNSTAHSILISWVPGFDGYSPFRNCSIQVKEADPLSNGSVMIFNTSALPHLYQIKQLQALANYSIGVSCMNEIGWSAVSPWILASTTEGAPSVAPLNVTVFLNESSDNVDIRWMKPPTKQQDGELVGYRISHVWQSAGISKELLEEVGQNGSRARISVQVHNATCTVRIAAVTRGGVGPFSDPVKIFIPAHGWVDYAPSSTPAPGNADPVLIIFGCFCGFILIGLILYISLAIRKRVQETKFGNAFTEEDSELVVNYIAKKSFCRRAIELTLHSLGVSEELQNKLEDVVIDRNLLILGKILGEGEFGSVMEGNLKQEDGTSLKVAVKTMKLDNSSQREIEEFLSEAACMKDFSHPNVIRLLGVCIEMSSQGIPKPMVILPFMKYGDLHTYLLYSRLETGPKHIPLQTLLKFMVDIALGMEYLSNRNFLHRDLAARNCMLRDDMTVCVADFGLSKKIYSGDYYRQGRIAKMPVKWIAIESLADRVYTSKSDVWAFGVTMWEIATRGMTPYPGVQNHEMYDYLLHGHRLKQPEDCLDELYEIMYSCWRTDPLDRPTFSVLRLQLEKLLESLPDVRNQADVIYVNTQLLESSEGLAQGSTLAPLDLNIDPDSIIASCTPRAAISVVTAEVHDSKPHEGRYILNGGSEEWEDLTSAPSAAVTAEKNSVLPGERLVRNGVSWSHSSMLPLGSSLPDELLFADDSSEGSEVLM
- procedure.details: phosphorylation enrichment, bacterial display (enrichment ratio); higher = better substrate or ligand; peptides without Tyr show the background;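 also: 11-residue human phosphosite peptides and single-mutation variants displayed on the E. coli surface, counted by deep sequencing, each peptide's frequency after selection divided by its frequency in the unselected input library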;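 also: frequency after pTyr selection over input frequency; kinase dosed for 20-30% of maximal phosphorylation in three min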
recorded.metric: phosphorylation enrichment
Respond with the number and no other words.

input: Look up phosphorylation enrichment for this sequence: FEPWVYSLSFE [PRKDC_Y647_F649L_YF]
output: 1.35

input: # query: phosphorylation enrichment of entry ANYTEYVATSW [CDKL5_Y171_R175S]
output: 0.815

input: Suppose we examine the sequence IVAREYFSKAD [CAMK2B_Y107_E110K_YF] ; what phosphorylation enrichment value has been reported?
output: 0.358

====

- target.under.test: Jak2 (UniProt O60674)
- Sequence (O60674 whole entry, looked up): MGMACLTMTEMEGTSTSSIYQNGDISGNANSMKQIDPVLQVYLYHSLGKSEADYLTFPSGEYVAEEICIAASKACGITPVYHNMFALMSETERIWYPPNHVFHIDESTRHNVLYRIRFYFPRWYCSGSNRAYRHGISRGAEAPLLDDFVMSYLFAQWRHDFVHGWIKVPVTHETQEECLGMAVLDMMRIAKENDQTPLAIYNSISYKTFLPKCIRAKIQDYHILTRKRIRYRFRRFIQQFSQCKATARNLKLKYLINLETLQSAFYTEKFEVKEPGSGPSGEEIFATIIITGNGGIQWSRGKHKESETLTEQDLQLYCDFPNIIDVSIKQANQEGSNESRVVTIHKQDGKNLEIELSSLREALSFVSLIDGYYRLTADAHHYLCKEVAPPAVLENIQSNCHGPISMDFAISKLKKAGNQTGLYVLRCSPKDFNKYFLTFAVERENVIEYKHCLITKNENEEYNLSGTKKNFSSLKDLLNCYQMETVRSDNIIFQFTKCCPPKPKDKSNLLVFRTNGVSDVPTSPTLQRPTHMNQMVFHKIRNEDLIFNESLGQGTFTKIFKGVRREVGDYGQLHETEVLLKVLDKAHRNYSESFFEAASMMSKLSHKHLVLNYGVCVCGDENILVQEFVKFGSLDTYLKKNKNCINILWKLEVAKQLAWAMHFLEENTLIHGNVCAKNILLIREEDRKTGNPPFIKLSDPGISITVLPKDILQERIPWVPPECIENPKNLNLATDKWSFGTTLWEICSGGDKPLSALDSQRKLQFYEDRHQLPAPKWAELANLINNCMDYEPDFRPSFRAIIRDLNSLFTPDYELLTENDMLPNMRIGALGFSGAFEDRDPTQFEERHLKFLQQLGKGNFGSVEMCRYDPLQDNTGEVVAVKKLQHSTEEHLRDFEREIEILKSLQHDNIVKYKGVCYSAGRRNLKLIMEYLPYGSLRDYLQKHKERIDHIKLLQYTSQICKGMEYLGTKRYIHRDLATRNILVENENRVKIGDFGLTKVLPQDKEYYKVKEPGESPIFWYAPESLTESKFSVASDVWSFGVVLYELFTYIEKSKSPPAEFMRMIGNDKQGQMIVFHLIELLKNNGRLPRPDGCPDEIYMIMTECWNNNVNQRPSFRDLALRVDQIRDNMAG
- procedure.details: phosphorylation enrichment, bacterial display (enrichment ratio); higher = better substrate or ligand; peptides without Tyr show the background
Decide using phosphorylation enrichment: a value greater than or equal to 1 is true (1), a smaller one is false (0).

Please review the following examples before continuing.
# polymer.sequence, category
rows = [
    ("KGEDFYFVTCH [FHL1_Y149_C150Y_YF]", "true (1)"),
    ("EHLNRYINDTF [TTLL10_Y446_S448N]", "true (1)"),
]

input: API: above_or_equal(metric=phosphorylation enrichment, cutoff=1) for item SIRYNYLLDVL [FGFR4_Y237]
output: false (0)

input: Decide: phosphorylation enrichment of RRNNSYTCFTA [SLC20A2_Y386_YF] >= 1?
output: true (1)

input: Please indicate if the recorded phosphorylation enrichment for ATHSRYRLNDY [CLDN14_Y233_G232R] meets or exceeds 1.
output: false (0)

input: Hi team, for GLVFLYVEKNQ [PRELP_Y156_M157V] , is the recorded phosphorylation enrichment at or above 1?
output: true (1)

====

List of phosphorylation enrichment values.
- target.under.test: FGFR1 (UniProt P11362)
- Sequence (P11362 whole entry, looked up): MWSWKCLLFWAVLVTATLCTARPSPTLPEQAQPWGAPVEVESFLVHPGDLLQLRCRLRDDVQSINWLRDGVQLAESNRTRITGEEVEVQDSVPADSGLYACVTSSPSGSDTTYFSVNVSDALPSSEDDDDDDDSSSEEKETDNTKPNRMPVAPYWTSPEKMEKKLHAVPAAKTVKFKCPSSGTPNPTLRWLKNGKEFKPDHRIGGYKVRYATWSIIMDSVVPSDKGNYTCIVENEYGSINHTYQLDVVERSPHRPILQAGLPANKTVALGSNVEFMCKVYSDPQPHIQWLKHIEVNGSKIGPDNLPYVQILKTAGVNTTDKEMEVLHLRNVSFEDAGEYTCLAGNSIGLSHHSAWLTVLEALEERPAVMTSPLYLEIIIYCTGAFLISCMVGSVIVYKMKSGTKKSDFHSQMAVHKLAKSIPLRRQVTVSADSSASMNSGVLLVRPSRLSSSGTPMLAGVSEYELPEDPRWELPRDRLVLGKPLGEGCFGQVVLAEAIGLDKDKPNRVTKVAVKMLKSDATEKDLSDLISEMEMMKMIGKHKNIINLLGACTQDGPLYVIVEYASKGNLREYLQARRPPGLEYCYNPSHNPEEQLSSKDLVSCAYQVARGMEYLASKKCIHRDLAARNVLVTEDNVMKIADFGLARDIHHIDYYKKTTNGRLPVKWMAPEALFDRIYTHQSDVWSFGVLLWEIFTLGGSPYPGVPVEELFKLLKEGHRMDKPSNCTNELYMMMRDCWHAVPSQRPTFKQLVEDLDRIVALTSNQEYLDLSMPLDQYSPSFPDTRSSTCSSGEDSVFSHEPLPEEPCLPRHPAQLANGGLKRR
- procedure.details: phosphorylation enrichment, bacterial display (enrichment ratio); higher = better substrate or ligand; peptides without Tyr show the background
Please give only the number in your answer, with no unit.

A selection of reference data follows.
# polymer.sequence, phosphorylation enrichment
rows = [
    ("HHIDFYKKTTN [FGFR1_Y654_YF]", 0.629),
    ("TSEASYFKSLN [NGEF_Y288_YF]", 0.563),
    ("YKIYLYTLNDN [FN1_Y1975]", 0.541),
    ("AHAGGYGAEAL [HBA1_Y25_E24G]", 0.421),
    ("EDKFMYLEFPQ [PTEN_Y240_F241L]", 2.44),
]

input: Recorded phosphorylation enrichment of EFHRLYEEFTR [PIK3R1_Y467_D464H_YF] , please.
output: 0.573

input: I would be grateful if you could share the reported phosphorylation enrichment for TNFRLYLRSLE [MTM1_Y71_YF] .
output: 0.538

input: Recorded phosphorylation enrichment for QTLTDYDTRFY [CSNK2A3_Y131_I133T] , please?
output: 0.612

input: Using the record for FATAGYGSLEA [EPHA10_Y959_A956T] , report its phosphorylation enrichment.
output: 0.52

====

Entries and their phosphorylation enrichment values follow.
- target.under.test: Fes (UniProt P07332)
- Sequence (P07332 whole entry, looked up): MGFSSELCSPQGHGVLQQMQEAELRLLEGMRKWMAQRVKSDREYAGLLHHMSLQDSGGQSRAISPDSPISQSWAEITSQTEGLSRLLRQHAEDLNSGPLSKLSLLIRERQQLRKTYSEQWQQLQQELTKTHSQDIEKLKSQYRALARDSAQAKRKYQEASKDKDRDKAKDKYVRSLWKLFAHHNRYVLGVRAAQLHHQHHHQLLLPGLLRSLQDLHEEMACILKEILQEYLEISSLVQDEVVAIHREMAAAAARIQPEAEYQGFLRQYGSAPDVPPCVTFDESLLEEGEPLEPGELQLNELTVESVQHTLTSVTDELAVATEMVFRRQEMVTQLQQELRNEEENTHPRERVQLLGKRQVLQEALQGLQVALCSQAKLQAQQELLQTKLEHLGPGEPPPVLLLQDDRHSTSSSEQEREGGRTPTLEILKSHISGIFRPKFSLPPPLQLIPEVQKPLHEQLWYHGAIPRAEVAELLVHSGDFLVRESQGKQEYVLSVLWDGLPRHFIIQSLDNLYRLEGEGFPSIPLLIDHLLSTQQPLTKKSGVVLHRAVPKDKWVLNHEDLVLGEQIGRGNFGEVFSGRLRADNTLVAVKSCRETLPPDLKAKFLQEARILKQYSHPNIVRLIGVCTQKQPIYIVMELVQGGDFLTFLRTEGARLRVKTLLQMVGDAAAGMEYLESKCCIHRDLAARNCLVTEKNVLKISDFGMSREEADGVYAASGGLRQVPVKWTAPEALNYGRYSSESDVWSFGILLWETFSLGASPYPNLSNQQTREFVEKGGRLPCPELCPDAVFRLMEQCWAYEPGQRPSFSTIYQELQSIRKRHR
- procedure.details: phosphorylation enrichment, bacterial display (enrichment ratio); higher = better substrate or ligand; peptides without Tyr show the background
Write the number on its own, no unit after it.

Some solved cases for reference:
# polymer.sequence, target.under.test, meas.value
data = [
    ("FTFTSYFMHWV [IGHV1-46_Y51_YF]", "Fes (UniProt P07332)", 1.13),
    ("IPPRRYFRSGV [STAMBP_Y36]", "Fes (UniProt P07332)", 0.676),
    ("PQGVRYTYTID [DCX_Y103_I104T]", "Fes (UniProt P07332)", 1.36),
    ("FSMGCYEISLE [HMGCL_Y198_G203E_YF]", "Fes (UniProt P07332)", 1.53),
    ("KCLAVYQAGAR [APOE_Y180_R176C]", "Fes (UniProt P07332)", 0.742),
    ("GYEEAYSVSKK [PAFAH1B1_Y28_F31S]", "Fes (UniProt P07332)", 1.01),
    ("SWSTSYSGYRY [NKAPL_Y91]", "Fes (UniProt P07332)", 0.925),
    ("SIRYNYLLDVL [FGFR4_Y237]", "Fes (UniProt P07332)", 0.745),
]

input: Bench note: what phosphorylation enrichment did GPRKAYELSQR [SETX_Y1297] show?
output: 0.539

input: Looking for the measured phosphorylation enrichment of RLLVVYPWTQK [HBG1_Y36_R41K] , can you help?
output: 0.926

input: Looking for the measured phosphorylation enrichment of YKIYLYTLNDN [FN1_Y1975] , can you help?
output: 1.52

input: # phosphorylation enrichment lookup, item RTVPLYESLRK [DDB1_Y718_P721L]
output: 1.15

input: Fill blank: measured phosphorylation enrichment of the sequence SGDINYGQFAQ [PLCG1_Y210_T209N] is ____.
output: 0.683

input: Param item = LLPNAYIFVVQ [L1CAM_Y418_A415P_YF] ; retrieve measured phosphorylation enrichment.
output: 1.66
